target-under-test: Norepinephrine transporter (Rattus norvegicus)
Sequence (Q9WTR4 whole entry): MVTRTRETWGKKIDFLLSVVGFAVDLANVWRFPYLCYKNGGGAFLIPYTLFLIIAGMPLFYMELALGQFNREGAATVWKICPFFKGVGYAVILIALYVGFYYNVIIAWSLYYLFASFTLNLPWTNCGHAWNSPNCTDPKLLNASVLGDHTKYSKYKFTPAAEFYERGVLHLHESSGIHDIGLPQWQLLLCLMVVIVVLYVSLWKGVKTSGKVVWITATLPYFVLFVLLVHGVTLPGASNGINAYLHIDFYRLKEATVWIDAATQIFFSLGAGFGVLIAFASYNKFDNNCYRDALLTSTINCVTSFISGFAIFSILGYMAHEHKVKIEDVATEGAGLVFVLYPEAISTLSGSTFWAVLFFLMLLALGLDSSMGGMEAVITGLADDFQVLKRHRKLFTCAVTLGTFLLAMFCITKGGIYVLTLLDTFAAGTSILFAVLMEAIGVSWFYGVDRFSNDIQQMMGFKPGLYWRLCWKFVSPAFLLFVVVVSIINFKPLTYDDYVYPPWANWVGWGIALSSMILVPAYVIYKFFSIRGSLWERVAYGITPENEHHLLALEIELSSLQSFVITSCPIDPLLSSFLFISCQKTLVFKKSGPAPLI
experiment: Displacement of [3H]nisoxetine from NET in rat cortical membrane
Recorded IC50 for the following molecules
Quick note: give the figure in nM, leave out the unit.

Solved cases (5 shown):
molecule: CC(C)N1CCC(C(CN2CCN(CCCc3ccccc3-c3ccccc3)CC2)c2ccc(F)cc2)CC1.Cl (racemic)
unit-string: nM
IC50: 1180
//
molecule: CC(C)N1CCC(C(CN2CCN(CCCc3cccc(F)c3-c3ccccc3)CC2)c2ccc(F)cc2)CC1.Cl (racemic)
unit-string: nM
IC50: 3940
//
molecule: CC(C)N1CCC(C(CN2CCN(CCCc3ccccc3-c3ccc(F)cc3)CC2)c2ccc(F)cc2)CC1.Cl (racemic)
unit-string: nM
IC50: 729
//
molecule: CC(C)N1CCC(C(CN2CCN(CCCc3c(F)cccc3-c3ccccc3)CC2)c2ccc(F)cc2)CC1.Cl (racemic)
unit-string: nM
IC50: 491
//
molecule: COc1ccc2ccccc2c1CCCCN1CCN(CC(c2ccc(F)cc2)C2CCN(C(C)C)CC2)CC1.Cl (racemic)
unit-string: nM
IC50: 2830

Turning to the following molecule.
What measured IC50 goes with CC(C)N1CCC(C(CN2CCN(CCCc3ccccc3-c3cccc(F)c3)CC2)c2ccc(F)cc2)CC1.Cl (racemic) ?
543

###

target-under-test: D(2) dopamine receptor (Rattus norvegicus)
Sequence (P61169 whole entry): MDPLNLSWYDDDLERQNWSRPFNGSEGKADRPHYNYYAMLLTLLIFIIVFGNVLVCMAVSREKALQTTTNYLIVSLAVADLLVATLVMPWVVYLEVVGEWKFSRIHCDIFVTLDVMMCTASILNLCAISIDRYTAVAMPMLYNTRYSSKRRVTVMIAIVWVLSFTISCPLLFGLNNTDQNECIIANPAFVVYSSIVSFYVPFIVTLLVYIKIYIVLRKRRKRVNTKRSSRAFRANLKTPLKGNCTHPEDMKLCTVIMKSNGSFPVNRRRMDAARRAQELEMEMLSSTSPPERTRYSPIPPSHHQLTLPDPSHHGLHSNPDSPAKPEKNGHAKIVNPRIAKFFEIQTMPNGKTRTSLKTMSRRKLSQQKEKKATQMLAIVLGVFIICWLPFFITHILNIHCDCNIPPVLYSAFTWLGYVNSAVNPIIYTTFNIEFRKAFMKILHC
experiment: Displacement of [3H]raclopride from dopamine receptor D2 in rat striatal membrane
Type: cell membranes, Striatum
outcome-measure: IC50

The examples below pair each entry with its known result.
molecule: CC(C)N1CCC(C(CN2CCN(CCCc3c(F)cccc3-c3ccccc3)CC2)c2ccc(F)cc2)CC1.Cl (racemic)
target-under-test: D(2) dopamine receptor (Rattus norvegicus)
IC50: > 1000 nM
//
molecule: CC(C)N1CCC(C(CN2CCN(CCCc3cccc(F)c3-c3ccccc3)CC2)c2ccc(F)cc2)CC1.Cl (racemic)
target-under-test: D(2) dopamine receptor (Rattus norvegicus)
IC50: 482 nM
//
molecule: CC(C)N1CCC(C(CN2CCN(CCCc3ccccc3-c3ccccc3)CC2)c2ccc(F)cc2)CC1.Cl (racemic)
target-under-test: D(2) dopamine receptor (Rattus norvegicus)
IC50: 423 nM
//
molecule: CC(C)N1CCC(C(CN2CCN(CCCc3ccccc3-c3cccc(F)c3)CC2)c2ccc(F)cc2)CC1.Cl (racemic)
target-under-test: D(2) dopamine receptor (Rattus norvegicus)
IC50: 805 nM
//
molecule: COc1ccc2ccccc2c1CCCCN1CCN(CC(c2ccc(F)cc2)C2CCN(C(C)C)CC2)CC1.Cl (racemic)
target-under-test: D(2) dopamine receptor (Rattus norvegicus)
IC50: > 1000 nM

Which IC50 is listed for CC(C)N1CCC(C(CN2CCN(CCCc3ccccc3-c3ccc(F)cc3)CC2)c2ccc(F)cc2)CC1.Cl (racemic) ?
820 nM

###

target-under-test: Melanocortin receptor 4 (Homo sapiens)
Sequence (P32245 whole entry): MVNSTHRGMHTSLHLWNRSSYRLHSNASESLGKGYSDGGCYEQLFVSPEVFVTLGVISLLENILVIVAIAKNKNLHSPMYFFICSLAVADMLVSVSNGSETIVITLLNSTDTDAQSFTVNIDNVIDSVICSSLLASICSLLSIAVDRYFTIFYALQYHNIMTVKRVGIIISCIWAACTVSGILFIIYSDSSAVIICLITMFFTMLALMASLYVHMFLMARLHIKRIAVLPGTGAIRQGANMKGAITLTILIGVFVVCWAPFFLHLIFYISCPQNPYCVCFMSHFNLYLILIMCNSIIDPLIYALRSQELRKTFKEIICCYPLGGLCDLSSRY
experiment: Displacement of [125I][Nle4,D-Phe7]alphaMSH from human MC4R expressed in COS7 cells
outcome-measure: log10 IC50 (log10 of the value in nM)
Please be aware that the numbers have been log10-transformed from IC50 in nM.

# log10 IC50 lookup, item CC(C)N1CCC(C(CN2CCN(CCCc3ccccc3-c3ccccc3F)CC2)c2ccc(F)cc2)CC1 (racemic)
1.99

What value of measured log10 IC50 is listed for CC(C)N1CCC(C(CN2CCN(CCCc3ccc(F)cc3-c3ccccc3)CC2)c2ccc(F)cc2)CC1 (racemic) ?
1.72

I would be grateful if you could share the reported log10 IC50 for CC(C)N1CCC(C(CN2CCN(CCCc3ccccc3-c3ccc(F)cc3)CC2)c2ccc(F)cc2)CC1.Cl (racemic) .
1.16

Item under review: COc1ccc2ccccc2c1CCCCN1CCN(CC(c2ccc(F)cc2)C2CCN(C(C)C)CC2)CC1.Cl (racemic) . Reported log10 IC50?
1.61

What value of log10 IC50 has been recorded for this entry: CN1CCC(C(CN2CCN(CCCCc3cccc4ccccc34)CC2)c2ccc(F)cc2)CC1 (racemic)
2.52

I would be grateful if you could share the reported log10 IC50 for CC(C)N1CCC(C(CN2CCN(CCCc3cccc(F)c3-c3ccccc3)CC2)c2ccc(F)cc2)CC1.Cl (racemic) .
1.30

Bench note: what log10 IC50 did CC(C)N1CCC(C(CN2CCN(CCCc3c(F)cccc3-c3ccccc3)CC2)c2ccc(F)cc2)CC1.Cl (racemic) show?
1.26

Which value of log10 IC50 has been reported for CC(C)N1CCC(C(CN2CCN(CCCc3ccccc3-c3cccc(F)c3)CC2)c2ccc(F)cc2)CC1.Cl (racemic) in the records?
1.37

Would you kindly share the measured log10 IC50 for CC(C)N1CCC(C(CN2CCN(CCCc3cc(F)ccc3-c3ccccc3)CC2)c2ccc(F)cc2)CC1 (racemic) ?
1.72

May I ask what log10 IC50 has been recorded for CC(C)N1CCC(C(CN2CCN(CCCc3ccccc3-c3ccccc3)CC2)c2ccc(F)cc2)CC1.Cl (racemic) ?
1.29
